molecular target: Delta-type opioid receptor (Mus musculus, UniProt P32300); assay: Ability to inhibit electrically evoked contractions of isolated muscle preparations of mouse vas deference (MVD, delta receptor); assay type: functional
Sequence (P32300 whole entry): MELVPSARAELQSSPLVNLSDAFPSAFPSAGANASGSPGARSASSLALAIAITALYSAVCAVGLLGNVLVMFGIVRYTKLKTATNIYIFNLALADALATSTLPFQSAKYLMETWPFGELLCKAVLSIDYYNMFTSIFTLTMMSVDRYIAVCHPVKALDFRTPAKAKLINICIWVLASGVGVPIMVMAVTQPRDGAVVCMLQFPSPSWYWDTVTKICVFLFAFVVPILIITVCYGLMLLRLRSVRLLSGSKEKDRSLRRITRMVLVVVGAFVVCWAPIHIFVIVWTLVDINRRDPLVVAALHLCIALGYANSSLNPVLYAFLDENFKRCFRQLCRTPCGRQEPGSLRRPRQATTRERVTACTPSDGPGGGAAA
measured-endpoint: pIC50
# log scale: pIC50 equals minus log10 of the concentration in mol/L

| compound-structure | recorded-measurement |
| --- | --- |
| CC1(C)SC[C@@H](C(=O)O)NC(=O)[C@H](Cc2ccccc2)NC(=O)CNC(=O)[C@@H]1NC(=O)[C@@H](N)Cc1ccc(O)cc1 | 9.59 |

Any idea what its pIC50 is? The molecule is CC1(C)SC[C@H](C(=O)O)NC(=O)[C@H](Cc2ccccc2)NC(=O)CNC(=O)[C@@H]1NC(=O)[C@@H](N)Cc1ccc(O)cc1
8.63

====

biological target: Mu-type opioid receptor (Homo sapiens); experiment: Inhibition of binding of [3H]diprenorphine to cloned human Opioid receptor mu 1 expressed in CHO cell membrane;Range is in between (580-680); assay type: cell-based
Sequence (P35372 whole entry): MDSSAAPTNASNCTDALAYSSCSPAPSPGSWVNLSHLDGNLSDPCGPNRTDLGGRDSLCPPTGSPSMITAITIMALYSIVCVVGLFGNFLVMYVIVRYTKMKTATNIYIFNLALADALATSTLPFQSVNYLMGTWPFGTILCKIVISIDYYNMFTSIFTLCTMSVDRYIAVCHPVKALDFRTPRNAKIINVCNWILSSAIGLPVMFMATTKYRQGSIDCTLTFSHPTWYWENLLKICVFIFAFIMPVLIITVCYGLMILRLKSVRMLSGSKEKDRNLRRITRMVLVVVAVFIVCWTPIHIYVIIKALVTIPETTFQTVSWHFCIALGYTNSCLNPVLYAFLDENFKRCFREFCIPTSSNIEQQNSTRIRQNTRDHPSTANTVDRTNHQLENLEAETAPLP
measured-endpoint: Ki (nM)
Number in nM, nothing else.

Given the entry CC1(C)SC[C@H](C(=O)O)NC(=O)[C@H](Cc2ccccc2)NC(=O)CNC(=O)[C@@H]1NC(=O)[C@@H](N)Cc1ccc(O)cc1 , report its measured Ki.
630

====

molecular target: Delta-type opioid receptor (Homo sapiens, UniProt P41143); assay: Inhibition of binding of [3H]diprenorphine to cloned human Opioid receptor delta 1 expressed in CHO cell membrane;Range is in between (0.62-0.65); type: cell-based
Sequence (P41143 whole entry): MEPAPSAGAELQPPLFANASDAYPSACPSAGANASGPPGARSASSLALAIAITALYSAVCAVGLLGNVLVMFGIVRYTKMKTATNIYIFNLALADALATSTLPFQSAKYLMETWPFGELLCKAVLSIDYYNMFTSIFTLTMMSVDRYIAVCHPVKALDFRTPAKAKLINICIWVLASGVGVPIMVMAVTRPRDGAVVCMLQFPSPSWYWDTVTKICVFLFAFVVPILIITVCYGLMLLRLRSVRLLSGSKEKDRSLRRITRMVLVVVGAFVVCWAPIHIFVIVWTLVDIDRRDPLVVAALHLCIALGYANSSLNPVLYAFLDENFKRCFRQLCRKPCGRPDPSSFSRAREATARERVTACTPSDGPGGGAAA
measured-endpoint: Ki (pM)
Just the number in pM, nothing appended.

Lab request: please report Ki under test system Delta-type opioid receptor (Homo sapiens, UniProt P41143) for N[C@@H](Cc1ccc(O)cc1)C(=O)N[C@@H]1CSC[C@@H](C(=O)O)NC(=O)[C@H](Cc2ccccc2)NC(=O)CNC1=O
630

====

biological target: UniProt:P41145; test: Inhibition of binding of [3H]diprenorphine to cloned human Opioid receptor kappa 1 expressed in CHO cell membrane; range is in between (4700-8500); type: cell-based
Sequence (P41145 whole entry): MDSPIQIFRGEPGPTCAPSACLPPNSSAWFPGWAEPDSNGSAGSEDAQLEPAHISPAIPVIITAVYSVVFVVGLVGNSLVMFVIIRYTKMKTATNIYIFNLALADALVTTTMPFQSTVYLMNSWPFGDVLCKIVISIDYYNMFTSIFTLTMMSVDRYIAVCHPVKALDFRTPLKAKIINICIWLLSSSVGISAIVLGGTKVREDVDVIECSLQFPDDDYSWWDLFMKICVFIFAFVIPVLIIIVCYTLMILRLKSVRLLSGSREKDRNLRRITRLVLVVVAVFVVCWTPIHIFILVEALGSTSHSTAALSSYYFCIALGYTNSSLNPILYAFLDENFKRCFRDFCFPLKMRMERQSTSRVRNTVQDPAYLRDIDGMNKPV
measured-endpoint: pKi
Entry type: numeric. Quantity: pKi, the -log10 of concentration in molar units.

I am curious: what pKi value has been reported for N[C@@H](Cc1ccc(O)cc1)C(=O)N[C@@H]1CSC[C@@H](C(=O)O)NC(=O)[C@H](Cc2ccccc2)NC(=O)CNC1=O ?
5.19

====

target: Mu-type opioid receptor (Homo sapiens); assay: Inhibition of binding of [3H]diprenorphine to cloned human Opioid receptor mu 1 expressed in CHO cell membrane;Range is in between (1.3-3.7); assay type: cell-based
measured-endpoint: pKi
Note on pKi: it is the negative log10 of concentration, concentration in mol/L.

GET /values?readout=pKi&item= N[C@@H](Cc1ccc(O)cc1)C(=O)N[C@@H]1CSC[C@@H](C(=O)O)NC(=O)[C@H](Cc2ccccc2)NC(=O)CNC1=O
8.64

====

target: UniProt P35372; test: Inhibition of binding of [3H]diprenorphine to cloned human Opioid receptor mu 1 expressed in CHO cell membrane;Range is in between (110-150); type: cell-based
measured-endpoint: Ki (nM)
Use nM as the unit, but write only the number.

Which Ki is listed for CC1(C)SC[C@@H](C(=O)O)NC(=O)[C@H](Cc2ccccc2)NC(=O)CNC(=O)[C@@H]1NC(=O)[C@@H](N)Cc1ccc(O)cc1 ?
130

Source of measurements: ChEMBL document CHEMBL1135552
